Exercise: state measured Reduction in the bitterness impression for each of the compounds provided.
- Tested on: caffeine solution containing 500 ppm
- assay.details: Bitterness reduction in a bitter substance solution (expert panel), caffeine
- Format: in vivo
- condition.notes: 25 ppm test substance + 500 ppm caffeine vs 500 ppm caffeine alone; * = significant
Kindly provide the numeric value in %* only, without the unit symbol.

In: Which Reduction in the bitterness impression value is on record for COc1cc(C[C@H]2COC(=O)[C@@H]2Cc2ccc(O)c(OC)c2)ccc1O [(−)-matairesinol (1-(−))] ?
Out: 35.5

In: Another compound to check: COc1cc(C[C@H]2C(=O)OC[C@@H]2[C@H](O)c2ccc(O)c(OC)c2)ccc1O [(−)-hydroxymatairesinol(2-(−))]
Out: 41.9

In: // next record COc1cc(C[C@H]2CO[C@H](c3ccc(O)c(OC)c3)[C@H]2CO)ccc1O [(+)-lariciresinol (3-(+))]
Out: 38.6
